- experimental details: 384-well plate pilot, post-Golgi transport modulator project, inhibition of yeast transport mutant growth (AID 636); note: test concentration not given here
- assay context: absorbance 615 nm, about 18 h, stronger effect = higher value
measured property: inhibition (%)

>>> reported_value("Cc1cc(C)n2nc(SCC(=O)N(C)c3ccccc3)nc2n1")
-7.57
>>> reported_value("O=C(CSc1nccn1Cc1ccccc1)Nc1nccs1")
-0.26
>>> reported_value("O=C(c1csc2ccccc12)n1cccn1")
-12.3
>>> reported_value("Nc1c(N2CCCCC2)c(=O)[nH]c(=O)n1-c1ccccc1")
-2.86
>>> reported_value("N/C(Cn1nnc(-c2ccccc2)n1)=N\\O")
-2.5
>>> reported_value("N#Cc1c(SCC(=O)N2CCOCC2)nsc1SCC(=O)N1CCOCC1")
-1.3
